Target: HIV-1 Env of isolate MGRM-C-023 (subtype C) (HIV-1)
Assay: cell-based or functional assay
test-readout: IC50 (µg/mL), pseudovirus neutralization
Write your answer as a measured quantity: the number, then the unit.

Requested field: IC50 (µg/mL), pseudovirus neutralization. Item: PGT-126 (antibody, V domains shown) VH: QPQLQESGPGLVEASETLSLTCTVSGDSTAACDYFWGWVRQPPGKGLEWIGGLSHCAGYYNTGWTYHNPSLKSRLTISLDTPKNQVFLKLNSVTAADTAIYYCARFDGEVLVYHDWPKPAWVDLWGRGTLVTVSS VL: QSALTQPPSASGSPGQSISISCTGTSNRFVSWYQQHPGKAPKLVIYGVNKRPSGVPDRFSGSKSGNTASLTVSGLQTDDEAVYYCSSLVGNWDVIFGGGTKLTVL 0.065 µg/mL

Name the recorded IC50 (µg/mL), pseudovirus neutralization for PGT-125 (antibody, V domains shown) VH: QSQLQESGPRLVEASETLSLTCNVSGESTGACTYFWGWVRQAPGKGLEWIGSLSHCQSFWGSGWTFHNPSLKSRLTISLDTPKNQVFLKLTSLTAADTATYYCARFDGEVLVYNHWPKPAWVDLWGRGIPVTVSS VL: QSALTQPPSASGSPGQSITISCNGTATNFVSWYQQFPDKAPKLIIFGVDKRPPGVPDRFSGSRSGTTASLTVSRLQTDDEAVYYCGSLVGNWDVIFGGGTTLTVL . 1.31 µg/mL

Fill blank: measured IC50 (µg/mL), pseudovirus neutralization of the binder PGT-123 (antibody, V domains shown) VH: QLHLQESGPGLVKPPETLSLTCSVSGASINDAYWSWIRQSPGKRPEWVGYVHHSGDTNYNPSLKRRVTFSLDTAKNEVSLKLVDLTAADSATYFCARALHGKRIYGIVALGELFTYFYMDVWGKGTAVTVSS VL: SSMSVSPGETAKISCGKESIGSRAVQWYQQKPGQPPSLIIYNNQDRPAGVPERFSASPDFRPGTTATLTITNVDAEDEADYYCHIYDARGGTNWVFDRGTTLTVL is ____. 0.011 µg/mL

Name the recorded IC50 (µg/mL), pseudovirus neutralization for PGT-127 (antibody, V domains shown) VH: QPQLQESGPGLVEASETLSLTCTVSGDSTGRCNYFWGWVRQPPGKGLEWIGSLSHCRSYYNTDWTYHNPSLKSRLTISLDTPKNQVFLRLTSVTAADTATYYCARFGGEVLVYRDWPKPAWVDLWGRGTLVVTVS VL: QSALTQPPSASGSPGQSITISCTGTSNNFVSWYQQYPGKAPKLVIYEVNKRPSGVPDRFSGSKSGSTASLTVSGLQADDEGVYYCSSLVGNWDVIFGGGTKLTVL . 1.08 µg/mL

Where do these numbers come from? They come from patent US20240132578A1.
